All figures here come from patent US20220387586A1.

target: T1, hu PD1-ECD (human, UniProt Q15116 25-170); assay: SPR (Biacore T200), antibody captured by anti-human IgG, hu PD1-ECD as analyte, 25 °C, 1:1 Langmuir fit
T1 construct: SPR analyte; also called human PD1-ECD
T1 sequence (Q15116 25-170 limits assumed): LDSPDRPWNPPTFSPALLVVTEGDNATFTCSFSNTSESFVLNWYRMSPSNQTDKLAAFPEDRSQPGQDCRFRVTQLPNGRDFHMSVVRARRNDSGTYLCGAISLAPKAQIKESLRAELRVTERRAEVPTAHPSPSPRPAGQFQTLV
measurement.kind: Kd (nM)
Use nM as the unit, but write only the number.

The examples below pair each entry with its known result.
[
  {
    "binder": "PD1-0103-0314 (antibody, human IgG1, V domains shown, Humanized; also called PD1-103-0314; PD-0103-0314) VH: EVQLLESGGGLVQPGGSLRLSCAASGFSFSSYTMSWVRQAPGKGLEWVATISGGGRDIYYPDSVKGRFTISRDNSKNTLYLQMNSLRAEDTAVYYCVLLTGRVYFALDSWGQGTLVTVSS VL: EIVLTQSPATLSLSPGERATLSCRASESVDTSDNSFIHWYQQKPGQSPRLLIYRSSTLESGIPARFSGSGSGTDFTLTISSLEPEDFAVYYCQQNYDVPWTFGQGTKVEIKR",
    "value.unit": "nM",
    "number": 1.5
  },
  {
    "binder": "PD1-0103-0312 (antibody, human IgG1, V domains shown, Humanized; also called PD1-103-0312; PD-0103-0312) VH: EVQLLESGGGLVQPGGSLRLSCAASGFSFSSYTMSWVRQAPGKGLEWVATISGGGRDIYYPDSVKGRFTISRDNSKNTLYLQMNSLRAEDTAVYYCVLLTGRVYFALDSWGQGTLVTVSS VL: DIVMTQSPDSLAVSLGERATINCKASESVDTSDNSFIHWYQQKPGQSPKLLIYRSSTLESGVPDRFSGSGSGTDFTLTISSLQAEDVAVYYCQQNYDVPWTFGQGTKVEIK",
    "value.unit": "nM",
    "number": 1.8
  },
  {
    "binder": "PD1-0103-0313 (antibody, human IgG1, V domains shown, Humanized; also called PD1-103-0313; PD-0103-0313) VH: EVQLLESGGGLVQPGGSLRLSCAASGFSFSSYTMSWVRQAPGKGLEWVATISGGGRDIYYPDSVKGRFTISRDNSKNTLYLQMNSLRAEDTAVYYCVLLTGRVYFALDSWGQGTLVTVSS VL: DVVMTQSPLSLPVTLGQPASISCRASESVDTSDNSFIHWYQQRPGQSPRLLIYRSSTLESGVPDRFSGSGSGTDFTLKISRVEAEDVGVYYCQQNYDVPWTFGQGTKVEIK",
    "value.unit": "nM",
    "number": 2.3
  }
]

Here's the next entry for you.
## Task Which Kd value belongs to chimeric PD1-0103 (antibody, human IgG1, V domains shown, also called chiPD1-0103) VH: EVILVESGGGLVKPGGSLKLSCAASGFSFSSYTMSWVRQTPEKRLDWVATISGGGRDIYYPDSVKGRFTISRDNAKNTLYLEMSSLMSEDTALYYCVLLTGRVYFALDSWGQGTSVTVSS VL: KIVLTQSPASLPVSLGQRATISCRASESVDTSDNSFIHWYQQRPGQSPKLLIYRSSTLESGVPARFSGSGSRTDFTLTIDPVEADDVATYYCQQNYDVPWTFGGGTKLEIK ?
## Result 0.8
